biological target: Kappa-type opioid receptor (Homo sapiens) (UniProt P41145); test: kappa opioid receptor blockers – cell-based, luminescence, uHTS (AID 1778); settings: KOR beta-arrestin recruitment, antagonist mode; at 10 µM unless noted
Sequence (P41145 whole entry, looked up): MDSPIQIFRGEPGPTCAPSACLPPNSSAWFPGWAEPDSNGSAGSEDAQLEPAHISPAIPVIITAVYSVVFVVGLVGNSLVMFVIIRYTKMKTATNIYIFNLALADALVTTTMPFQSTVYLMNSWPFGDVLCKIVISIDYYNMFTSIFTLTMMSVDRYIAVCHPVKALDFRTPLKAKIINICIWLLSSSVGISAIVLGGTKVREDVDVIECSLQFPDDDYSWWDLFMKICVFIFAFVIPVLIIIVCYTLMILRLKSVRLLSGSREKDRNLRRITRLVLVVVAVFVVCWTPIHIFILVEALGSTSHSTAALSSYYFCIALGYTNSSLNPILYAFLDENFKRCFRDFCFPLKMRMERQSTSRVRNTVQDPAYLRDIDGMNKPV
Among all 290,000 compounds or so, about 260 (0.09%) were called active. Rule as the data show it: active = inhibition above about 50%; inactive = the rest. What follows is part of a selection rich in actives, with near analogues and random picks from the rest. Measured potencies and affinities stand elsewhere.
Response enum: yes (active), no (inactive)

O=[N+]([O-])c1c(Nc2cccc(O)c2)cc(Cl)c2nonc12 : yes
COc1cccc2sc(Nc3nc(-c4cc5ccccc5oc4=O)cs3)nc12 : no
Cc1oc2c(c(=O)c1C)C(=O)CC(c1ccccc1)C2 (stereo not drawn) : no
Cc1c(Nc2cc(N3CCOCC3)c3nonc3c2[N+](=O)[O-])c(=O)n(-c2ccccc2)n1C : no
CCC(C(=O)OC)n1cnc2c(nnn2-c2ccccc2)c1=O (stereo not drawn) : no

Continue with the next compound.
## Input GET /call?item= "CSc1ccc(NC(=O)NCCCN2CCC(Cc3ccccc3)CC2)cc1" returns the recorded outcome of this test.
## Output no
